# System: Salmonella enterica serovar Typhimurium TA100
# Assay Text: Salmonella/microsome assay, TA100
# Protocol Conditions: −S9, 150 µM
Recorded Metric: revertant His+ colonies TA100
// return a plain number; no unit text

Use these answered entries as a reference point.
Compound	Recorded Metric	Result
CC(=O)Nc1ccc(C)cc1C(F)(F)C(=O)NCC[C@@H]1C[C@H](CC(=O)OC(C)(C)C)OC(C)(C)O1 [Compound 13b]	revertant His+ colonies TA100	143
CC(=O)Nc1ccc(Cl)cc1C(F)(F)C(=O)NCC[C@@H]1C[C@H](CC(=O)OC(C)(C)C)OC(C)(C)O1 [Compound 13c]	revertant His+ colonies TA100	140

Now turn to the next compound.
Annotate the compound CC(=O)Nc1ccccc1C(F)(F)C(=O)NCC[C@@H]1C[C@H](CC(=O)OC(C)(C)C)OC(C)(C)O1 [Compound 13a] with its measured revertant His+ colonies TA100. 142
